studyConditions: rat, in vivo, iv;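 also: rats fasted overnight before dosing and fed about 4 h afterwards, with serial blood sampled through a carotid artery catheter at each time point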
metricName: AUC of the pro-drug (in words)

Here is how some compounds turned out for AUC of the pro-drug (in words).
CC(=O)Nc1ccc(O[C@H]2O[C@H](COC(=O)CCC(=O)O)[C@@H](O)[C@H](O)[C@@H]2O)cc1 :: high
CCCC(=O)OC[C@H]1O[C@H](Oc2ccc(NC(C)=O)cc2)[C@@H](O)[C@@H](O)[C@@H]1O :: low
CC(=O)Nc1ccc(O[C@H]2O[C@H](CO)[C@@H](O)[C@H](O)[C@@H]2O)cc1 :: low
CC(=O)Nc1ccc(O[C@H]2O[C@H](CO)[C@@H](O[C@H]3O[C@H](CO)[C@@H](O)[C@H](O)[C@H]3O)[C@H](O)[C@@H]2O)cc1 [compound 5, 1-(4-acetaminophenoxy) 2-epi maltose] :: high
CC(=O)Nc1ccc(O[C@H]2O[C@H](COC(=O)C(C)C)[C@@H](O)[C@H](O)[C@@H]2O)cc1 :: low
CC(=O)Nc1ccc(O[C@H]2O[C@H](COC(C)=O)[C@@H](O)[C@H](O)[C@@H]2O)cc1 :: low

Now consider the entry below.
Exercise: Could you share which AUC of the pro-drug (in words) value was measured for CC(=O)Nc1ccc(O[C@H]2O[C@H](C)[C@@H](O)[C@H](O)[C@@H]2O)cc1 ?
Solution: high
